Kindly state MIC for each of the entries shown.
# System: Pseudomonas aeruginosa ATCC 9027
# experimental_protocol: ≥ marks a high value that may be exact or a test limit, other limits are often not marked, values filed in µg/mL are converted to µM
Value expressed in µM; do not type the unit.

Problem: What MIC value was documented for this compound, CC[C@H](C)[C@H](NC(=O)[C@H](CCCN=C(N)N)NC(=O)[C@H](CCCN=C(N)N)NC(=O)[C@H](C)NC(=O)[C@@H](NC(=O)[C@H](C)NC(=O)[C@H](CC(C)C)NC(=O)[C@H](CC(C)C)NC(=O)[C@H](C)NC(=O)[C@H](CCCN=C(N)N)NC(=O)[C@H](CC(C)C)NC(=O)[C@H](CC(N)=O)NC(=O)[C@@H](N)CC(C)C)C(C)C)C(=O)N[C@@H](CC(C)C)C(N)=O [LNLRALLAVARRIL] ?
Result: 8

Problem: What MIC value was documented for this compound, CC(C)C[C@H](NC(=O)[C@H](C)NC(=O)[C@H](CCCCN)NC(=O)[C@H](CCCCN)NC(=O)[C@H](CC(C)C)NC(=O)[C@H](Cc1ccccc1)NC(=O)[C@H](CCCCN)NC(=O)[C@H](C)NC(=O)[C@H](CC(C)C)NC(=O)[C@H](CC(C)C)NC(=O)[C@H](CCCCN)NC(=O)[C@H](C)NC(=O)[C@@H](N)Cc1ccccc1)C(N)=O [FAKLLAKFLKKAL] ?
Result: 134

Problem: What MIC value was documented for this compound, CC(C)C[C@H](NC(=O)[C@H](C)NC(=O)[C@H](CCCCN)NC(=O)[C@H](CCCCN)NC(=O)[C@H](Cc1ccccc1)NC(=O)[C@H](C)NC(=O)[C@H](CCCCN)NC(=O)[C@H](C)NC(=O)[C@H](Cc1ccccc1)NC(=O)[C@H](CC(C)C)NC(=O)[C@H](CCCCN)NC(=O)[C@H](C)NC(=O)[C@@H](N)Cc1ccccc1)C(N)=O [FAKLFAKAFKKAL] ?
Result: 135

Problem: What MIC value was documented for this compound, CC(C)C[C@H](NC(=O)[C@H](CCCCN)NC(=O)[C@H](CCCCN)NC(=O)[C@H](CC(C)C)NC(=O)[C@H](C)NC(=O)[C@H](CCCCN)NC(=O)[C@H](C)NC(=O)[C@H](CC(C)C)NC(=O)[C@H](CC(C)C)NC(=O)[C@H](CCCCN)NC(=O)[C@H](C)NC(=O)[C@@H](N)Cc1ccccc1)C(N)=O [FAKLLAKALKKL] ?
Result: 18.6

Entry source: DBAASP
